Data origin: patent US20180230200A1

TARGET OR SYSTEM: gH of HCMV strain TB40/E (human cytomegalovirus strain TB40/E)
EXPERIMENTAL DETAILS: cell-based or functional assay
QUANTITY MEASURED: IC50, neutralization of TB40/E infection of CTB (µg/mL)
Answers are plain numbers, in µg/mL.

Completed entries (count: 2):
62-11 (antibody, V domains shown, also called NAb 62-11) VH: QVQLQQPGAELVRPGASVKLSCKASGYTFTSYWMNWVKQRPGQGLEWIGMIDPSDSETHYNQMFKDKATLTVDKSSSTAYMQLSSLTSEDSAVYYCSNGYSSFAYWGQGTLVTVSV VL: DVQMTQTTSSLSASLGDRVTISCSASQGISNYLNWYQQKPDGTVKLLIYDTSSLHSGVPSRFSGSGSGTDYSLTISNLEPEDIATYYCQQYSKLPYTFGGGTKLEIK : 2.76
62-100 (antibody, V domains shown, also called NAb 62-100) VH: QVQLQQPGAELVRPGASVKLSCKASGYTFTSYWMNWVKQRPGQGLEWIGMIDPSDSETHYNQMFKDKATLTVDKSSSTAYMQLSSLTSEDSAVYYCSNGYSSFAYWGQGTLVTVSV VL: DIVLTQSPATLSVTPGDSVSLSCRASQSISNNLHWYQQKSHESPRLLIKYASQSISGIPSRFSGSGSGTDFTLSINSVETEDFGKYVCQQSNSWPLTFGSGTKLEIK : 3.62

As a next step, examine the binder that follows.
Q: Give recorded IC50, neutralization of TB40/E infection of CTB. 18F10 (antibody, V domains shown, also called NAb 18F10) VH: QVTLKESGPGILQPSQTLSLTCSFSGFSLSTYGIGIGWIRQPSGKGLEWLAHIWWNDNKNYNTALKSRLTISKDPSNNQVFLKIASVDTADTATYFCARTGYFDVWGAGTTVTVSS VL: DVVLTQTPLSLPVSLGDQVSISCSSSQSLVHSNGNTYIHWYLQKPGQSPKLLIYTVSNRFSGVPDRFSGSGSGTDFTLKISRVEAEDLGLYFCSQSTHVPYTFGGGTKLEIK
Ans: 8.8
